# System under test: Inositol hexakisphosphate kinase 1 (Homo sapiens, UniProt Q92551)
# Sequence (Q92551 whole entry): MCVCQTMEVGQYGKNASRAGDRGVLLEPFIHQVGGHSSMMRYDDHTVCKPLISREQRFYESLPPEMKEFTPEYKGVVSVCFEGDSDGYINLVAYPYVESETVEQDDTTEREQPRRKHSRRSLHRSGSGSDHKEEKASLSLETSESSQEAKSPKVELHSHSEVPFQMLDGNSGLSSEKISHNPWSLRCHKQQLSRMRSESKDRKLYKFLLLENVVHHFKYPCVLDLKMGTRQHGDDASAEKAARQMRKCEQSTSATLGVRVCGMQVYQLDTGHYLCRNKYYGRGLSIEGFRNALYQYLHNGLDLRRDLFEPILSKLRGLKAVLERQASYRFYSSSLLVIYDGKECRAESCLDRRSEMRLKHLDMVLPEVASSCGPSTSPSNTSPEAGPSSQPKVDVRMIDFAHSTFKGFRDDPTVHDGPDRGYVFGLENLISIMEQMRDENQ
# Test method notes: Inhibition of N-terminal 6His-MBP-tagged recombinant human IP6K1 expressed in Escherichia coli assessed as inorganic phosphate release using InsP6 as substrate in presence of ATP measured after 60 to 120 mins by malachite green based colorimetric - DIPP1 coupled enzyme assay
Measured metric: IC50
Kindly format the answer as number then unit.

[
  {
    "Chem smiles": "O=[N+]([O-])c1ccc(CNc2nc(NCc3cccc(C(F)(F)F)c3)nc3[nH]cnc23)cc1",
    "System under test": "Inositol hexakisphosphate kinase 1 (Homo sapiens, UniProt Q92551)",
    "Measured metric": "IC50",
    "Val": "1000 nM"
  }
]

Reported IC50 for O=C(O)c1ccc2noc(-c3ccc(Oc4ncc(Cl)cc4Cl)cc3)c2c1 was 430 nM
